Where do the numbers come from? From paper PMC6431292.

- measurement target: BLVRB (biliverdin reductase B) (Homo sapiens, UniProt P30043)
- Sequence (P30043 whole entry): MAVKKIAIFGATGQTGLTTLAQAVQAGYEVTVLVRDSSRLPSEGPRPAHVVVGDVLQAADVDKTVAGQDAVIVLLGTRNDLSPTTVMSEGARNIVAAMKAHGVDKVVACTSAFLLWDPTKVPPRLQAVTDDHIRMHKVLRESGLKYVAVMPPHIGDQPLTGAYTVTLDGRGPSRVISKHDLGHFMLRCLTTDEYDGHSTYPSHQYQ
- assay info: NMR titration
- Format: binding
readout name: Kd (µM)
Write the value in µM as a bare number.

Reported Kd for Cc1cc2nc3c(=O)[nH]c(=O)nc-3n(C[C@H](O)[C@H](O)[C@H](O)COP(=O)(O)OP(=O)(O)OC[C@H]3O[C@@H](n4cnc5c(N)ncnc54)[C@H](O)[C@@H]3O)c2cc1C was 590
